molecular target: MAGE-A11:PCF11 interaction (GST-MAGE-A11 and FAM-PCF11_4) (Homo sapiens); construct: GST-MAGE-A11 MHD (human MAGE-A11 MHD amino acid 218-429); made in house; host or cells: E. coli BL21(DE3); experiment: TR-FRET primary / single point screen at 15 µM; assay type: binding; conditions: single point TR-FRET screening of 797 quinoline compounds against MAGE-A11:PCF11

MOLECULE: Oc1ccc(Br)cc1CN1CCC(Nc2ccnc3cc(Cl)ccc23)CC1
percent inhibition (TR-FRET): -1.209

MOLECULE: CCN(CC)CCCC(C)Nc1ccnc2cc(Cl)ccc12 (stereo not shown)
percent inhibition (TR-FRET): -2.592

MOLECULE: COc1ccc2nc3cc(Cl)ccc3c(NCCCNCc3cccc(C(F)(F)F)c3)c2c1
percent inhibition (TR-FRET): -408.139

MOLECULE: CCC(C)CNCCCNc1c2ccc(Cl)cc2nc2ccc(OC)cc12 (stereo not shown)
percent inhibition (TR-FRET): -451.494

MOLECULE: COc1ccc2nc3cc(Cl)ccc3c(NCCCNCc3ccccc3)c2c1
percent inhibition (TR-FRET): -432.435

MOLECULE: CCCN(CCCNc1c2ccc(Cl)cc2nc2ccc(OC)cc12)Cc1cccs1
percent inhibition (TR-FRET): -164.134

MOLECULE: CCCN(CCCNc1c2ccc(Cl)cc2nc2ccc(OC)cc12)Cc1ccc(OC)c(OC)c1
percent inhibition (TR-FRET): -175.453

MOLECULE: CN1CCN(c2c(S(=O)(=O)c3ccc(Cl)cc3)cnc3ccccc23)CC1
percent inhibition (TR-FRET): -10.1441

MOLECULE: COC(=O)c1ccc(CNCCCNc2c3ccc(Cl)cc3nc3ccc(OC)cc23)cc1
percent inhibition (TR-FRET): -133.032

MOLECULE: CCc1nc2ccccc2c(NC(=O)CNC(C)(C)CC(C)(C)C)c1C
percent inhibition (TR-FRET): -0.6045

MOLECULE: Cc1cc(N2CCN(CC(O)CO)CC2)c2ccccc2n1 (stereo not shown)
percent inhibition (TR-FRET): -4.954

MOLECULE: CCc1ccc2ncc(S(=O)(=O)c3ccccc3)c(N3CCN(C)CC3)c2c1
percent inhibition (TR-FRET): -6.249

MOLECULE: CCCN(CCCNc1c2ccc(Cl)cc2nc2ccc(OC)cc12)Cc1nccn1C
percent inhibition (TR-FRET): -159.863

----------
target: MAGE-A11:PCF11 interaction (GST-MAGE-A11 and FAM-PCF11_4) (Homo sapiens, UniProt P43364); construct: GST-MAGE-A11 MHD (human MAGE-A11 MHD amino acid 218-429); made in house; host or cells: E. coli BL21(DE3); assay: TR-FRET primary / single point screen at 15 µM; type: binding; details: single point TR-FRET screening of 797 quinoline compounds against MAGE-A11:PCF11
Sequence (P43364 218-429): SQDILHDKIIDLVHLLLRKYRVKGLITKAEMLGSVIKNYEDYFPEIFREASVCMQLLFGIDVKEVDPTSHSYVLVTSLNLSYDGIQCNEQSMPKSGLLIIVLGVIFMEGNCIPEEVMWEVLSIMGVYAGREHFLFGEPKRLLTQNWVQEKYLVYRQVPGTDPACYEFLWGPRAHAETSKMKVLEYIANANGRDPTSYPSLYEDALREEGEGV
OBSERVABLE: percent inhibition (TR-FRET)

TEST_SMILES: CCCN(CCCNc1c2ccc(Cl)cc2nc2ccc(OC)cc12)Cc1ccc([N+](=O)[O-])s1
SUBJECT_OF_TEST: MAGE-A11:PCF11 interaction (GST-MAGE-A11 and FAM-PCF11_4) (Homo sapiens, UniProt P43364)
RESULT: -154.43
--
TEST_SMILES: COc1ccc2nc3cc(Cl)ccc3c(NCCCNCc3cc4ccccc4o3)c2c1
SUBJECT_OF_TEST: MAGE-A11:PCF11 interaction (GST-MAGE-A11 and FAM-PCF11_4) (Homo sapiens, UniProt P43364)
RESULT: -146.701
--
TEST_SMILES: COc1ccc(F)c(CN(CCCCNc2ccnc3cc(Cl)ccc23)Cc2ccccc2)c1
SUBJECT_OF_TEST: MAGE-A11:PCF11 interaction (GST-MAGE-A11 and FAM-PCF11_4) (Homo sapiens, UniProt P43364)
RESULT: 14.5458
--
TEST_SMILES: CCOc1ccc2ncc(S(=O)(=O)c3ccccc3)c(N3CCN(C)CC3)c2c1
SUBJECT_OF_TEST: MAGE-A11:PCF11 interaction (GST-MAGE-A11 and FAM-PCF11_4) (Homo sapiens, UniProt P43364)
RESULT: -3.938
